- System: SNB-19
- Assay remarks: NCI tumour cell line growth inhibition, 48 h
The source made the active and inactive calls. No stated cut-off is given here; in the data, active = GI50 up to about 1.1 µM and inactive = higher. *1 amine or outer side, *2 acyl side, *3 side chain or, on linkers, in order; H or OH if unused. Where a SMILES comes first, the peptide text is derived from it. Non-standard residues stand in square brackets, D forms with d. Residues, ends and D or L forms follow the SMILES beside them. [ ]: non-standard residue; d: D form. The star is where a group is joined. ξ: configuration not given here. *: point of attachment. X30 = COC1=CC(=O)N(C(=O)[C@@H](O*)C(C)C)[C@H]1Cc1ccccc1; X43 = CCC(=O)CC(O)CC(C)CC(N[*:1])C(=O)[*:2]; ξLeu(3ξ-OH) = CC(C)C(O)C(N)C(=O)O; ξPro(4ξ-Me) = CC1CNC(C(=O)O)C1; NMeL = CN[C@@H](CC(C)C)C(=O)O; X42 = CCC(C)/C=C/C(=O)*; Cbz = O=C(OCc1ccccc1)*; Aib = CC(C)(N)C(=O)O; X44 = CC(CN(C)C)N*; βAla = NCCC(=O)O
Labels: active, inactive

- Compound: "COc1ccc(CSC2=C(C#N)C(=O)NC3(CCCCC3)S2)cc1"
  System under test: "SNB-19"
  Class name: "inactive"
- Compound: "C[C@]12CCC3c4ccc(O)cc4CC[C@H]3C1CC(=O)N(CCN1CCCC1)C2=O (some centres undefined)"
  System under test: "SNB-19"
  Class name: "inactive"
- Compound: "O=C(/C(=C/c1ccccc1)c1ccccc1)N1c2ccccc2CC1c1c[nH]c2ccccc12 (centres undefined)"
  System under test: "SNB-19"
  Class name: "inactive"
- Compound: "CCC(=O)CC(O)CC(C)CC(NC(=O)C1CC(C)CN1C(=O)/C=C/C(C)CC)C(=O)NC(C(=O)NC(C)(C)C(=O)NC(CC(C)C)C(=O)NC(CC(C)C)C(=O)NC(C)(C)C(=O)NC(C)(C)C(=O)NCCC(=O)NC(C)CN(C)C)C(O)C(C)C (centres undefined) (X42-[ξPro(4ξ-Me)][X43][ξLeu(3ξ-OH)][Aib]LL[Aib][Aib][βAla]-X44; configuration not given here)"
  System under test: "SNB-19"
  Class name: "active"
- Compound: "CC(=O)NNc1nc(C)c(C(/C=C/c2ccc3c(c2)OCO3)=N/Nc2ccccc2)s1"
  System under test: "SNB-19"
  Class name: "inactive"
- Compound: "C/C(CC(O)(C(F)(F)F)C(F)(F)F)=N\\NC(N)=O"
  System under test: "SNB-19"
  Class name: "inactive"
- Compound: "Cc1ccc(Nc2nc3c(s2)C(=O)c2ccccc2C3=O)cc1"
  System under test: "SNB-19"
  Class name: "inactive"
- Compound: "CC(=O)Oc1ccc(O)c(O)c1C/C=C(\\C)CC/C=C(\\C)CC/C=C(\\C)CCC=C(C)C"
  System under test: "SNB-19"
  Class name: "active"
- Compound: "CN(C)Cc1cc(C(=O)O)cc(CN(C)C)c1O"
  System under test: "SNB-19"
  Class name: "inactive"
- Compound: "O=C1c2ccccc2C(=O)c2c1c1cc(O)ccc1n2Cc1ccc(Cl)cc1Cl"
  System under test: "SNB-19"
  Class name: "inactive"
- Compound: "CCCCCCOc1ccc(C(=O)N(C)O)cc1"
  System under test: "SNB-19"
  Class name: "inactive"
- Compound: "CN1CN(C2OC(CO)C(O)C2O)c2nc(N)[nH]c(=O)c21 (centres undefined)"
  System under test: "SNB-19"
  Class name: "inactive"
- Compound: "O=C1/C(=N\\O)c2ccccc2S1(=O)=O"
  System under test: "SNB-19"
  Class name: "inactive"
- Compound: "Cc1cc(O)nc(NN2C(Cl)C(=O)C2c2ccc(Cl)cc2)n1 (centres undefined)"
  System under test: "SNB-19"
  Class name: "inactive"
- Compound: "C=C1c2nc3ccccc3n2C=C(c2ccc(OC)cc2)N1c1ccc(OCCN2CCOCC2)cc1"
  System under test: "SNB-19"
  Class name: "inactive"
- Compound: "COC1=CC(=O)N(C(=O)[C@@H](OC(=O)[C@@H]2CCCN2C(=O)[C@@H]2CCCN2C(=O)[C@H](CC(C)C)N(C)C(=O)[C@@H](NC(=O)[C@@H](NC(=O)OCc2ccccc2)C(C)C)C(C)C)C(C)C)[C@H]1Cc1ccccc1 (Cbz-VV[NMeL]PP-X30)"
  System under test: "SNB-19"
  Class name: "inactive"
- Compound: "C/C(=N\\NC(=S)N1CC2CCC(CC2)C1)c1cccc(C)n1"
  System under test: "SNB-19"
  Class name: "inactive"
- Compound: "CC(=O)O/N=C/c1c2ccccc2cc2ccccc12"
  System under test: "SNB-19"
  Class name: "inactive"
- Compound: "CC(NC1=NCCO1)c1ccco1 (centres undefined)"
  System under test: "SNB-19"
  Class name: "inactive"
